B1: SCARA5 (parent)
chain: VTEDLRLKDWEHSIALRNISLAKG

# Variants of: B1
# Assay Info: protein stability index of a GFP-peptide fusion (GPS, HEK-293T) (PSI 1-6); higher = more stable;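 further: lentivirally expressed fusions sorted by FACS into six bins by GFP to DsRed ratio, PSI derived from sequencing read proportions per bin multiplied by bin number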
# Particulars: c terminus: a fixed tail appended
Measurement Name: protein stability index

* R17V | 1.56
* L16V | 3.98
* V1D | 3.75
* R17N | 3.53
* R6C | 3.86
* T2Y | 3.17
* I19H | 3.69
* V1E | 3.98
* R17I | 2.07
* S20P | 3.91
* S20G | 3.66
* E11R | 2.91
* K23S | 3.3
* S20Q | 3.54
* E3G | 2.94
* S20M | 3.24
* G24I | 2.42
* A15Y | 2.39
* E3I | 2.26
* S13Y | 2.88
* H12R | 3.51
* H12E | 3.84
* S13W | 2.57
* L5F | 2.97
* S13R | 3.4
* W10S | 4.39
* R17G | 3.62
* S13P | 3.25
* A15H | 3.37
* W10P | 4.41
* G24E | 4.13
* N18V | 1.76
* I19F | 3
* V1P | 3.88
* E11K | 3.3
* L21H | 4.07
* G24M | 2.95
* V1M | 3.5
* A15R | 2.74
* H12P | 3.29
* E11G | 2.87
* W10N | 4.26
* W10C | 4.11
* I14S | 4.22
* S13A | 3.37
* L7T | 3.39
